assay: Pharmacokinetic study in rats after oral administration of OS extract (UHPLC-QqQ-MS/MS of plasma); format: in vivo, rat; settings: male, SD, rat, in vivo, po, 3 g/kg
Assay endpoint: Tmax (min)

INSERT INTO assay_data (sample_smiles, unit_descriptor, quantitative_result) VALUES
  ('O=c1cc(-c2ccccc2)oc2cc(O)cc(O)c12', 'min', 3.6),
  ('COc1c(O)cc2oc(-c3ccccc3)cc(=O)c2c1O', 'min', 15);

* * *

test: Stability of the analytes in rat plasma samples under storage conditions; type: physicochemical; details: spiked concentration 320 ng/mL, n = 6
Recorded Measured, Autosampler for 12 h for the following molecules
Assay endpoint: Measured, Autosampler for 12 h (ng/mL)

INSERT INTO results (molecule, quantitative_result) VALUES
  ('O=c1c(O)c(-c2ccc(O)c(O)c2)oc2cc(O[C@@H]3O[C@H](CO)[C@@H](O)[C@H](O)[C@H]3O)cc(O)c12 [Quercetin-7-O-β-D-glucoside, quercetin-7-O-β-D-glucoside]', 320.27),
  ('O=c1cc(-c2ccc(O)cc2)oc2cc(O)c(O)c(O)c12', 327.40),
  ('COc1ccc(-c2cc(=O)c3c(O)cc(O)cc3o2)cc1', 317.16),
  ('COc1c(O)cc2oc(-c3ccc(O)cc3)cc(=O)c2c1O', 304.61),
  ('O=c1cc(-c2ccc(O)cc2)oc2cc(O)cc(O)c12', 316.15),
  ('COc1c(O[C@@H]2O[C@H](C(=O)O)[C@@H](O)[C@H](O)[C@H]2O)cc(O)c2c(=O)cc(-c3ccccc3)oc12 [Wogonoside, wogonoside]', 307.85),
  ('O=c1c(O)c(-c2ccc(O)c(O)c2)oc2cc(O)cc(O)c12', 325.17);

* * *

Below, each of the molecules is paired with its reported Measured, -80°C for 7 days value.
experiment: Stability of the analytes in rat plasma samples under storage conditions; type: physicochemical; details: spiked concentration 2 ng/mL, n = 6
Assay endpoint: Measured, -80°C for 7 days (ng/mL)

INSERT INTO measurements (sample_smiles, assay_endpoint, quantitative_result) VALUES
  ('O=c1cc(-c2ccc(O)cc2)oc2cc(O)cc(O)c12', 'Measured, -80°C for 7 days', 1.93),
  ('O=c1c(O)c(-c2ccc(O)c(O)c2)oc2cc(O)cc(O)c12', 'Measured, -80°C for 7 days', 1.81),
  ('COc1ccc(-c2cc(=O)c3c(O)cc(O)cc3o2)cc1', 'Measured, -80°C for 7 days', 1.78);

* * *

Item-by-item account of Measured, Room temperature for 4 h
assay: Stability of the analytes in rat plasma samples under storage conditions; type: physicochemical; conditions: spiked concentration 400 ng/mL, n = 6
Assay endpoint: Measured, Room temperature for 4 h

INSERT INTO results (compound, assay_endpoint, result) VALUES
  ('O=c1cc(-c2ccccc2)oc2cc(O[C@@H]3O[C@H](CO)[C@@H](O)[C@H](O)[C@H]3O)c(O)c(O)c12 [Oroxin A, oroxin A]', 'Measured, Room temperature for 4 h', '388.37 ± 19.15 ng/mL'),
  ('O=C(O)[C@H]1O[C@@H](Oc2cc(O)c3c(=O)cc(-c4ccccc4)oc3c2)[C@H](O)[C@@H](O)[C@@H]1O [Chrysin-7-O-β-D-glucuronide, chrysin-7-O-β-D-glucuronide]', 'Measured, Room temperature for 4 h', '419.25 ± 24.55 ng/mL'),
  ('O=c1cc(-c2ccccc2)oc2cc(O[C@@H]3O[C@H](CO[C@@H]4O[C@H](CO)[C@@H](O)[C@H](O)[C@H]4O)[C@@H](O)[C@H](O)[C@H]3O)c(O)c(O)c12 [Oroxin B, oroxin B]', 'Measured, Room temperature for 4 h', '430.23 ± 11.61 ng/mL'),
  ('O=c1cc(-c2ccccc2)oc2cc(O)c(O)c(O)c12 [Baicalein, baicalein]', 'Measured, Room temperature for 4 h', '389.14 ± 35.85 ng/mL');

* * *

Each record here notes measured Measured, -80°C for 7 days.
experiment: Stability of the analytes in rat plasma samples under storage conditions; type: physicochemical; conditions: spiked concentration 20 ng/mL, n = 6
Assay endpoint: Measured, -80°C for 7 days (ng/mL)

INSERT INTO results (compound, unit_descriptor, quantitative_result) VALUES
  ('O=c1c(O)c(-c2ccc(O)c(O)c2)oc2cc(O[C@@H]3O[C@H](CO)[C@@H](O)[C@H](O)[C@H]3O)cc(O)c12 [Quercetin-7-O-β-D-glucoside, quercetin-7-O-β-D-glucoside]', 'ng/mL', 19.58),
  ('O=c1cc(-c2ccc(O)cc2)oc2cc(O)cc(O)c12', 'ng/mL', 20.16),
  ('O=c1cc(-c2ccc(O)cc2)oc2cc(O)c(O)c(O)c12', 'ng/mL', 19.80),
  ('COc1c(O)cc2oc(-c3ccc(O)cc3)cc(=O)c2c1O', 'ng/mL', 19.90);
